assay: Displacement of Biotin-p53K381acK382me2 from KDM7B (unknown origin) by TR-FRET assay; set-up: species or system Homo sapiens
pIC50: −log10 of the molar value.
measured_property: pIC50

CN1CCN(c2ccnc(C(=O)N3CCC[C@H](C(=O)Nc4cccc(-c5ccc6c(c5)C(=O)NC6)c4)C3)c2)CC1 < 4.00

// fetch pIC50 given entry `CN1CCN(c2ccnc(C(=O)N3CCC[C@H](C(=O)Nc4cccc(-c5ccc(C(N)=O)cc5)c4)C3)c2)CC1`
< 4.00

---

target: TP53-binding protein 1 (Homo sapiens, UniProt Q12888); experiment: Displacement of Biotin-p53K381acK382me2 from N-terminal his6-tagged 53BP1 (1484 to 1603 residues) (unknown origin) expressed in Rosetta2 BL21 (DE3) pLysS competent cells by TR-FRET assay; assay type: single protein
Sequence (Q12888 whole entry, the tested form may be a part): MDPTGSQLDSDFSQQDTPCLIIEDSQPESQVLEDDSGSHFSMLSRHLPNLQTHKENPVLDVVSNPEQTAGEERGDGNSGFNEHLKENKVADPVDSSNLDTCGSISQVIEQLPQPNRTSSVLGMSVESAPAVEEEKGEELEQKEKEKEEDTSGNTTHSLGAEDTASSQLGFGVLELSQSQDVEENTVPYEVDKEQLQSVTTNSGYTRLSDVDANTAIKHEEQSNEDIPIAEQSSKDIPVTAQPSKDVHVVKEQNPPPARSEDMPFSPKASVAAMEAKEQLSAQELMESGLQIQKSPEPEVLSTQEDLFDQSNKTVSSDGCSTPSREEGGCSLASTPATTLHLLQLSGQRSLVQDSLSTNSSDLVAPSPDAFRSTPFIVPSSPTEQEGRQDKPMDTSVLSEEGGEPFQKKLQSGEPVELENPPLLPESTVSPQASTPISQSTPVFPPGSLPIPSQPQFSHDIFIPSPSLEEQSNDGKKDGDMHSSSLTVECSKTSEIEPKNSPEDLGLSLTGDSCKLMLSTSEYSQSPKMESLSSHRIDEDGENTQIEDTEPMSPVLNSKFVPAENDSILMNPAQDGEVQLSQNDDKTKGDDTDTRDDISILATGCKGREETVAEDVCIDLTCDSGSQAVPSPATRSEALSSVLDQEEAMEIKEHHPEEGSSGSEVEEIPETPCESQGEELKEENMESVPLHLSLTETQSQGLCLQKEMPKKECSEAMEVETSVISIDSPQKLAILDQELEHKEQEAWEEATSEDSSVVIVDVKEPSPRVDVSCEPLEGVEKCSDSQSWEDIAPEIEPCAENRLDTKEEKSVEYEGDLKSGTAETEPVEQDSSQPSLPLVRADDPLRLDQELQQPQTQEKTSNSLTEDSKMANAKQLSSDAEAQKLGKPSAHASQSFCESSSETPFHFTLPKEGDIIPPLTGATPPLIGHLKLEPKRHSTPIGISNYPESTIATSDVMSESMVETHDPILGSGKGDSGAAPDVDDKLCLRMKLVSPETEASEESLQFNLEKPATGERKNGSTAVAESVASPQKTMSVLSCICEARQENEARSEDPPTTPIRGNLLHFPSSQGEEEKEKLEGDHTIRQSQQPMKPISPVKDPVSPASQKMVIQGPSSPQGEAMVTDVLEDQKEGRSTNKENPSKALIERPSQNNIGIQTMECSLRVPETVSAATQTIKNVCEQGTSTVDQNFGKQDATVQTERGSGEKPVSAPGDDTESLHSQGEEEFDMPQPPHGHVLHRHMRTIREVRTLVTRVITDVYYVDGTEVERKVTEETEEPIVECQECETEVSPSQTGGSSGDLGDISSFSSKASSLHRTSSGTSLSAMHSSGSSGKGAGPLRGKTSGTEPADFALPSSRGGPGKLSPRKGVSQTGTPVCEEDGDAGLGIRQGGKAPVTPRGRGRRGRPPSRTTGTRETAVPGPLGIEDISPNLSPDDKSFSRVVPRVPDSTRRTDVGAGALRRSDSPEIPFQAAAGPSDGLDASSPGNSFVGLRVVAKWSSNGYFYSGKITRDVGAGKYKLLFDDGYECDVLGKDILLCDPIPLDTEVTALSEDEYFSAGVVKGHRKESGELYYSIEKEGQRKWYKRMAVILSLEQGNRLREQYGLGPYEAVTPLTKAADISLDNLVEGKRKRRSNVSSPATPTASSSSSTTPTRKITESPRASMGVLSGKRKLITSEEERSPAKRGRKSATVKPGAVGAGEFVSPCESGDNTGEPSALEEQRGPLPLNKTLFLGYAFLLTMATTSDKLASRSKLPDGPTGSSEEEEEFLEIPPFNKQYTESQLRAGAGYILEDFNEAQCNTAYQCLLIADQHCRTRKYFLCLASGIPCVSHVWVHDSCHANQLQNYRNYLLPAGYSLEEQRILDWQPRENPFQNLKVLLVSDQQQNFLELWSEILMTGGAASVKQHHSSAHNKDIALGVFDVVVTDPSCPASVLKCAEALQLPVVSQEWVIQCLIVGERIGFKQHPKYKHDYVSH
pIC50: −log10 of the molar value.
measured_property: pIC50

CN1CCN(c2ccnc(C(=O)N3CCC[C@H](C(=O)Nc4cccc(-c5ccc6c(c5)CCCN6)c4)C3)c2)CC1 4.92
CN1CCN(c2ccnc(C(=O)N3CCC[C@H](C(=O)Nc4cccc(-c5ccc(C(=O)O)cc5)c4)C3)c2)CC1 5.09

a. CN1CCN(c2ccnc(C(=O)N3CCC[C@H](C(=O)Nc4cccc(-c5ccc6[nH]ncc6c5)c4)C3)c2)CC1
b. CN1CCN(c2cccc(C(=O)N3CCC[C@H](C(=O)Nc4cccc(-c5ccc(C(N)=O)cc5)c4)C3)c2)CC1
Which value of pIC50 is greater, the one for a or the one for b ? Write down the label of the entry you select.
b

---

target: TP53-binding protein 1 (Homo sapiens, UniProt Q12888); experiment: Binding affinity to N-terminal his6-tagged 53BP1 tandem tudor domain (1484 to 1603 residues) (unknown origin) expressed in Rosetta2 BL21 (DE3) pLysS competent cells assessed as dissociation constant by ITC analysis
pKd: −log10 of the molar value.
measured_property: pKd

P. CN1CCN(c2ccnc(C(=O)N3CCC[C@H](C(=O)Nc4cccc(-c5ccc(C(N)=O)cc5)c4)C3)c2)CC1
Q. CN1CCN(c2ccnc(C(=O)N3CCC[C@H](C(=O)Nc4cccc(-c5ccc6c(c5)C(=O)NC6)c4)C3)c2)CC1
Would you mind telling me which has the lower recorded pKd between P and Q ? The response must carry the label of the picked entry.
P
(P: 6.07, Q: 6.39)

---

target: UniProtKB Q12888; test: Binding affinity to N-terminal his6-tagged 53BP1 (1484 to 1603 residues) (unknown origin) expressed in Rosetta2 BL21 (DE3) pLysS competent cells assessed as dissociation constant by SPR analysis
measured_property: Kd (nM)

A. CN1CCN(c2ccnc(C(=O)N3CCC[C@H](C(=O)Nc4cccc(-c5ccc6c(c5)C(=O)NC6)c4)C3)c2)CC1
B. CN1CCN(c2ccnc(C(=O)N3CCC[C@H](C(=O)Nc4cccc(-c5ccc(C(N)=O)cc5)c4)C3)c2)CC1
Hi team, can someone confirm which has the larger Kd: A or B ? Thanks. Returns: label corresponding to the selected item.
B

---

molecular target: TP53-binding protein 1 (Homo sapiens); assay: Displacement of Biotin-p53K381acK382me2 from N-terminal his6-tagged 53BP1 (1484 to 1603 residues) (unknown origin) expressed in Rosetta2 BL21 (DE3) pLysS competent cells by TR-FRET assay; type: single protein
measured_property: IC50 (µM)

COC(=O)c1cccc(-c2cccc(NC(=O)[C@H]3CCCN(C(=O)c4cc(N5CCN(C)CC5)ccn4)C3)c2)c1 10
CN1CCN(c2ccnc(C(=O)N3CCC[C@H](C(=O)Nc4cccc(-c5cccc(C(N)=O)c5)c4)C3)c2)CC1 1.9

1. CNC(=O)c1ccc(-c2cccc(NC(=O)[C@H]3CCCN(C(=O)c4cc(N5CCN(C)CC5)ccn4)C3)c2)cc1
2. CN1CCN(c2ccnc(C(=O)N3CCC[C@H](C(=O)Nc4cccc(-c5ccccc5)c4)C3)c2)CC1
3. CN1CCN(c2ccnc(C(=O)N3CCC[C@H](C(=O)Nc4cccc(-c5cccc(C(=O)O)c5)c4)C3)c2)CC1
4. CN1CCN(c2ccnc(C(=O)N3CCC[C@H](C(=O)Nc4cccc(-c5ccc6[nH]cnc6c5)c4)C3)c2)CC1
Rank the 4 compounds: largest IC50 first, smallest last. As an answer, provide the labels arranged in the order called for.
3, 4, 1, 2
(3: 83 µM, 4: 38 µM, 1: 5.6 µM, 2: 3.8 µM)

A. CN1CCN(c2ccnc(C(=O)N3CCC[C@H](C(=O)Nc4cccc(-c5ccccc5)n4)C3)c2)CC1
B. CN1CCN(c2ccnc(C(=O)N3CCC[C@@H]3C(=O)Nc3cccc(-c4ccc(C(N)=O)cc4)c3)c2)CC1
Identify the item whose IC50 is the smaller number: A or B Answer = label.
B
(B: 5 µM, A: 7.4 µM)
